Measured values drawn from ChEMBL document CHEMBL1156044 for this set.

assaySummary: Systemic plasma clearance in Beagle dog at 1 mg/kg, iv administered as single dose
Assay type: ADME, organism-based, Canis lupus familiaris
Parameters: dose 1 mg/kg, route intravenous
endpoint: clearance (L/h/kg)
A number alone suffices; assume L/h/kg.

Task: Can you look up the measured clearance of CCC(C)(C)C(=O)Nc1cc(CN2CCOCC2)c(C)cn1 for me?
Output: 0.9

----------
assaySummary: Half life in Sprague-Dawley rat at 10 mg/kg, po administered as single dose
Assay type: ADME, organism-based
Design: dose 10 mg/kg, route oral
setupConditions: in vivo
endpoint: half-life (h)
The response must be a number in h with no trailing unit.

Task: half-life lookup needed for CCC(C)(C)C(=O)Nc1cc(CN2CCOCC2)c(C)cn1 , thanks.
Output: 2.1

----------
assaySummary: Half life in Beagle dog at 1 mg/kg, iv administered as single dose
Format: ADME, organism-based, Canis lupus familiaris
Design: dose 1 mg/kg, route intravenous
setupConditions: in vivo
endpoint: half-life (h)
# output: bare number, implied unit h

Task: # get_value(readout='half-life', item= CCC(C)(C)C(=O)Nc1cc(CN2CCOCC2)c(C)cn1 )
Output: 1.4

----------
assaySummary: Half life in Beagle dog at 10 mg/kg, po administered as single dose
Assay type: ADME, organism-based, Canis lupus familiaris
Parameters: dose 10 mg/kg, route oral
setupConditions: in vivo
endpoint: half-life (h)
Write the value in h as a bare number.

Task: Reported half-life for CCC(C)(C)C(=O)Nc1cc(CN2CCOCC2)c(C)cn1 : what is it?
Output: 1.1

----------
assaySummary: Cmax in Beagle dog at 10 mg/kg, po administered as single dose
Type: ADME, organism-based, Canis lupus familiaris
Design: dose 10 mg/kg, route oral
setupConditions: in vivo
endpoint: Cmax (ng/mL)
Number only, in ng/mL; omit the unit.

Task: Record request: Cmax value, item CCC(C)(C)C(=O)Nc1cc(CN2CCOCC2)c(C)cn1
Output: 535

----------
Species: Homo sapiens
assaySummary: Selectivity ratio of Ki for human cloned CB1 receptor to Ki for human cloned CB2 receptor
The molecules listed here are annotated with their Ratio Ki.
Reply briefly: the number, and no unit.

molecule: Cc1cnc(NC(=O)C2(C)CCCCC2C)cc1CN1CCOCC1 (stereo not given)
Ratio Ki: 1300

Task: Using the record for CCCC(C)(C)C(=O)Nc1cc(CN2CCOCC2)c(C)cn1 , report its Ratio Ki.
Output: 330

----------
assaySummary: Metabolic stability in rat liver microsomes assessed as compound remaining at […] after 30 mins
Assay type: ADME, Microsome
setupConditions: read-out: Stability
remaining at 0.5 h strictly under 40% means yes; at 40% or over means no.

compound: CCC(C)(C)C(=O)Nc1cc(CN2CCOCC2)c(C)cc1C
assignedClass: no
//
compound: Cc1cnc(NC(=O)C2(C)CCCCC2C)cc1CN1CCOCC1 (configuration not stated)
assignedClass: yes
//
compound: CCc1cnc(NC(=O)C(C)(C)CC)cc1CN1CCOCC1
assignedClass: yes
//
compound: CCC(C)(C)C(=O)Nc1ccc(C)c(CN2CCOCC2)c1
assignedClass: yes
//
compound: CCC1(C(=O)Nc2cc(CN3CCOCC3)c(C)cn2)CCCCC1
assignedClass: yes
//
compound: CCC(C)(C)C(=O)Nc1cc(CN2CCOCC2)c(C)cn1
assignedClass: no

Please turn your attention to the following entry.
Task: Could you please tell me whether remaining at 0.5 h recorded for CCC1(C(=O)Nc2cc(CN3CCOCC3)c(C)cn2)CCC1 is less than 40%?
Output: no

----------
subjectOfTest: Cannabinoid receptor 1 (Homo sapiens, UniProt P21554)
Sequence (P21554 whole entry): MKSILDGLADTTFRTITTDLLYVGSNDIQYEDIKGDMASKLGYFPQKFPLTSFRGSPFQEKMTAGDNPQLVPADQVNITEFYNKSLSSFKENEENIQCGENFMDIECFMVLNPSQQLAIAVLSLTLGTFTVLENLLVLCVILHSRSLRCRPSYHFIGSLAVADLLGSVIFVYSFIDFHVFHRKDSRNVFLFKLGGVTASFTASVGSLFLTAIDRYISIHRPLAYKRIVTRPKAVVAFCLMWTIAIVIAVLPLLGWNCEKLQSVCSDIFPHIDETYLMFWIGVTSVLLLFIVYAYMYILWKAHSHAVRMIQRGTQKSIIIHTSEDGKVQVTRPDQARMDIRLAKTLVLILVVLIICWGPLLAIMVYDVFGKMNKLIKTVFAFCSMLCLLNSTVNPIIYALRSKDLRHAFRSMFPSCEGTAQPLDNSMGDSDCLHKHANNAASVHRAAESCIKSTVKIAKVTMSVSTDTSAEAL
endpoint: Ki (µM)
All answers are understood in µM, so give the number only.

molecule: CCC(C)(C)C(=O)Nc1cc(CN2CCOCC2)c(C)cn1
Ki [µM]: 3.8

Task: I'm curious: which Ki was measured for Cc1cnc(NC(=O)C2(C)CCCCC2C)cc1CN1CCOCC1 (stereo not given) tested on Cannabinoid receptor 1 (Homo sapiens, UniProt P21554)?
Output: 2.5

Task: Provide the documented Ki with Cannabinoid receptor 1 (Homo sapiens, UniProt P21554) as the system for CCCC(C)(C)C(=O)Nc1cc(CN2CCOCC2)c(C)cn1
Output: 1.8

Task: Report Ki for CCC1(C(=O)Nc2cc(CN3CCOCC3)c(C)cn2)CCCC1 tested on Cannabinoid receptor 1 (Homo sapiens, UniProt P21554).
Output: 1.1

Task: Checklist item: Ki tested on Cannabinoid receptor 1 (Homo sapiens, UniProt P21554), entry CCc1cnc(NC(=O)C(C)(C)CC)cc1CN1CCOCC1 , value?
Output: 4.3

----------
subjectOfTest: Cannabinoid receptor 2 (Rattus norvegicus)
Sequence (Q9QZN9 whole entry): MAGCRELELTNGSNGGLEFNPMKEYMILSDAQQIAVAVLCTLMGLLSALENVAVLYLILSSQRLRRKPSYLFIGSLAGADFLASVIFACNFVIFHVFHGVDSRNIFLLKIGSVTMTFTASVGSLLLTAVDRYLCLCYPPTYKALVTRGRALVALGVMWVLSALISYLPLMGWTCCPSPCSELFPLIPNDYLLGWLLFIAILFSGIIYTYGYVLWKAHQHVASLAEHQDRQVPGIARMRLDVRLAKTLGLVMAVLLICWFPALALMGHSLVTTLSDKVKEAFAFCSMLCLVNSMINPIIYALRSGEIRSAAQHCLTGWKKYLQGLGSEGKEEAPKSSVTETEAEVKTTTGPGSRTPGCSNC
assaySummary: Agonist activity at CB2 receptor in rat cerebellar membrane assessed as WIN-55212-2-stimulated [35S]GTPgammaS binding after 6 hrs by scintillation spectrometry
pEC50: −log10 of the molar value.
Dear colleague, classification is by pEC50, with ranges listed here: class 1 (below 7), class 2 (7 to below 8), class 3 (8 or more)

compound: CCCC(C)(C)C(=O)Nc1cc(CN2CCOCC2)c(C)cn1
assignedClass: class 3
--
compound: CCC(C)(C)C(=O)Nc1cc(CN2CCOCC2)cc(C)n1
assignedClass: class 1
--
compound: CCC(C)(C)C(=O)Nc1cc(CN2CCOCC2)c(C)cn1
assignedClass: class 2
--
compound: Cc1cnc(NC(=O)C2(C)CCCCC2C)cc1CN1CCOCC1 (stereo unspecified)
assignedClass: class 3

Turning now to a further record.
Task: Hi there! Could you help me figure out the category for CCC(C)(C)C(=O)Nc1cc(CN2CCOCC2)c(C#N)cn1 please?
Output: class 1

----------
assaySummary: Oral bioavailability in Sprague-Dawley rat at 10 mg/kg administered as single dose
Format: ADME, organism-based
setupConditions: in vivo
endpoint: bioavailability
Show the value, then the unit it is measured in.

Task: Sample CCC(C)(C)C(=O)Nc1cc(CN2CCOCC2)c(C)cn1 — what was its bioavailability?
Output: 57%

----------
assaySummary: AUC (0 to infinity) in Sprague-Dawley rat at 10 mg/kg, po administered as single dose
Assay type: ADME, organism-based
Parameters: time infinity, dose 10 mg/kg, route oral
setupConditions: plasma
endpoint: AUC(0-inf) (ng·h/mL)
Numbers only; they are read as ng·h/mL.

Task: Value lookup for AUC(0-inf); key = CCC(C)(C)C(=O)Nc1cc(CN2CCOCC2)c(C)cn1
Output: 893

----------
assaySummary: Tmax in Beagle dog at 10 mg/kg, po administered as single dose
Type: ADME, organism-based, Canis lupus familiaris
Parameters: dose 10 mg/kg, route oral
setupConditions: in vivo
endpoint: Tmax
I'd appreciate it if you included the unit after the number.

Task: Look at this molecule and give its reported Tmax. CCC(C)(C)C(=O)Nc1cc(CN2CCOCC2)c(C)cn1
Output: 30 min

----------
assaySummary: Half life in Sprague-Dawley rat at 1 mg/kg, iv administered as single dose
Assay type: ADME, organism-based
Set-up: dose 1 mg/kg, route intravenous
setupConditions: in vivo
endpoint: half-life

Task: Can you look up the measured half-life of CCC(C)(C)C(=O)Nc1cc(CN2CCOCC2)c(C)cn1 for me?
Output: 30 min

----------
assaySummary: Volume of distribution at steady state in Beagle dog at 1 mg/kg, iv administered as single dose
Assay type: ADME, organism-based, Canis lupus familiaris
Set-up: dose 1 mg/kg, route intravenous
setupConditions: in vivo, read-out: Vdss
endpoint: Vd (L/kg)
Output spec: scalar in L/kg, unitless text.

Task: Please look up its Vd: CCC(C)(C)C(=O)Nc1cc(CN2CCOCC2)c(C)cn1
Output: 0.6

----------
assaySummary: Cmax in Sprague-Dawley rat at 10 mg/kg, po administered as single dose
Type: ADME, organism-based
Set-up: dose 10 mg/kg, route oral
setupConditions: in vivo
endpoint: Cmax (ng/mL)
Numbers only here, please. The scale is ng/mL.

Task: What measured Cmax goes with CCC(C)(C)C(=O)Nc1cc(CN2CCOCC2)c(C)cn1 ?
Output: 185

----------
assaySummary: Metabolic stability in human liver microsomes assessed as compound remaining at […] after 30 mins
Assay type: ADME, Microsome
setupConditions: read-out: Stability
endpoint: remaining at 0.5 h (%)
Please state the figure in %; there is no need to write the unit.

compound: CCc1cnc(NC(=O)C(C)(C)CC)cc1CN1CCOCC1
resultNumber: 34

Task: Consider the compound CCC(C)(C)C(=O)Nc1cc(CN2CCOCC2)c(C)cn1 and give its measured remaining at 0.5 h.
Output: 64

Task: Using the record for Cc1cnc(NC(=O)C2(C)CCCCC2C)cc1CN1CCOCC1 (configuration not stated) , report its remaining at 0.5 h.
Output: 1

Task: Consider the compound shown here: CCC1(C(=O)Nc2cc(CN3CCOCC3)c(C)cn2)CCCC1 What is its recorded remaining at 0.5 h?
Output: 12

Task: Item CCC1(C(=O)Nc2cc(CN3CCOCC3)c(C)cn2)CCCCC1 has what recorded remaining at 0.5 h?
Output: 0

Task: Given the compound CCCC(C)(C)C(=O)Nc1cc(CN2CCOCC2)c(C)cn1 , what is its reported remaining at 0.5 h?
Output: 15

Task: // returns reported remaining at 0.5 h for input CCC1(C(=O)Nc2cc(CN3CCOCC3)c(C)cn2)CCC1
Output: 51
